# testTarget: T1, 4H3343-AA
# T1 chain: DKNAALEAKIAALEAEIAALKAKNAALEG
# assayExplanation: two-hybrid library CCmax;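 also: natural log of median RNA to DNA barcode read ratio; higher means stronger binding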
# testConditions: mean of both orientations
measuredQuantity: interaction score

Take a look at these entries with their results.
binder	reportedMeasurement
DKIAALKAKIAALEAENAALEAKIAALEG [4H2837-AA]	-1.14
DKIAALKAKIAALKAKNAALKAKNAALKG [4H2944-AA]	-1.17
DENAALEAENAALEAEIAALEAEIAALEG [4H1153-AA]	-0.81
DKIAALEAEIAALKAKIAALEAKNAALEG [4H2151-AA]	-1.19
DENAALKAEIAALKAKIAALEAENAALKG [4H1636-AA]	-1.42
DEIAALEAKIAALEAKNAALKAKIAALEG [4H317-AA]	-1.56

Now, please, on to the next binder.
Given the entry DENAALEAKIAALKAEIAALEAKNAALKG [4H1352-AA] , report its measured interaction score.
-0.188
